Source: patent US8951964B2

Tested on: genotype 3a NS3 gene in transient replicon
Assay: 3a transient replicon (luciferase reporter)
Type: cell-based, HCV
Settings: Hepatitis C virus, Huh-7, read-out: 3a transient replicon (nM)
EC50 values by entry

Some solved cases for reference:
Request the reported EC50 associated with `Cn1ccc(C(=O)N[C@H]2CCCCC/C=C\[C@@H]3C[C@@]3(C(=O)NS(=O)(=O)C3(C)CC3)NC(=O)[C@@H]3C[C@@H](Oc4nc5cc(F)ccc5c5ccccc45)CN3C2=O)n1` 0.1 to 0.5 nM

Recorded EC50 for `O=C(N[C@H]1CCCCC/C=C\[C@@H]2C[C@@]2(C(=O)NS(=O)(=O)C2CC2)NC(=O)[C@@H]2C[C@@H](Oc3nc4ccccc4c4cc(F)ccc34)CN2C1=O)c1cncs1` , please? > 1 nM

Entry under review: `CC1(S(=O)(=O)NC(=O)[C@@]23C[C@H]2/C=C\CCCCC[C@H](NC(=O)c2ccon2)C(=O)N2C[C@H](Oc4nc5cc(OC(F)(F)F)ccc5c5cc(F)ccc45)C[C@H]2C(=O)N3)CC1` . Reported EC50? 0.1 to 0.5 nM

What does the data say about its EC50? Entry: `Cc1cc(C(=O)N[C@H]2CCCCC/C=C\[C@@H]3C[C@@]3(C(=O)NS(=O)(=O)C3(C)CC3)NC(=O)[C@@H]3C[C@@H](Oc4nc5cc(F)ccc5c5ccccc45)CN3C2=O)no1` > 1 nM

Given the compound `CC1(S(=O)(=O)NC(=O)[C@@]23C[C@H]2/C=C\CCCCC[C@H](NC(=O)c2cscn2)C(=O)N2C[C@H](Oc4nc5cc(F)ccc5c5cc(F)ccc45)C[C@H]2C(=O)N3)CC1` , what is its reported EC50? > 1 nM

Kindly consider the entry below.
Param item = `Cc1cc(C(=O)N[C@H]2CCCCC/C=C\[C@@H]3C[C@@]3(C(=O)NS(=O)(=O)C3(C)CC3)NC(=O)[C@@H]3C[C@@H](Oc4nc5ccccc5c5ccc(OC(F)(F)F)cc45)CN3C2=O)no1` ; retrieve measured EC50. > 1 nM

----------
Each record here notes measured pEC50.
Test system: genotype 1a replicon (1a-H77)
Experiment: 1a stable replicon (luciferase reporter)
Format: cell-based, HCV
Conditions: Hepatitis C virus, Huh-7, luciferase reporter, HuH-7 cells, 5% FBS
pEC50: −log10 of the molar value.

Example compounds with recorded pEC50:
May I ask what pEC50 has been recorded for `Cn1ccc(C(=O)N[C@H]2CCCCC/C=C\[C@@H]3C[C@@]3(C(=O)NS(=O)(=O)C3(C)CC3)NC(=O)[C@@H]3C[C@@H](Oc4nc5cc(F)ccc5c5ccccc45)CN3C2=O)n1` ? 9.00 to 9.30

Reported pEC50 for O=C(N[C@H]1CCCCC/C=C\[C@@H]2C[C@@]2(C(=O)NS(=O)(=O)C2CC2)NC(=O)[C@@H]2C[C@@H](Oc3nc4cc(F)ccc4c4cc(F)ccc34)CN2C1=O)c1cscn1 [drawing 124] : what is it? 9.00 to 9.30

Return reported pEC50; argument: `CC1(S(=O)(=O)NC(=O)[C@@]23C[C@H]2/C=C\CCCCC[C@H](NC(=O)c2cncs2)C(=O)N2C[C@H](Oc4nc5cc(F)ccc5c5ccccc45)C[C@H]2C(=O)N3)CC1` 9.00 to 9.30

Item under review: `COc1ccc2c(c1)c(O[C@@H]1C[C@H]3C(=O)N[C@]4(C(=O)NS(=O)(=O)C5CC5)C[C@H]4/C=C\CCCCC[C@H](NC(=O)c4cc(C)on4)C(=O)N3C1)nc1ccccc12` . Reported pEC50? 9.30 to 10.00

New cases:
# pEC50 lookup, item `Cc1cc(C(=O)N[C@H]2CCCCC/C=C\[C@@H]3C[C@@]3(C(=O)NS(=O)(=O)C3CC3)NC(=O)[C@@H]3C[C@@H](Oc4nc5ccccc5c5cccc(F)c45)CN3C2=O)no1` 9.30 to 10.00

Could you share which pEC50 value was measured for `COc1ccc2c(c1)c(O[C@@H]1C[C@H]3C(=O)N[C@]4(C(=O)NS(=O)(=O)C5CC5)C[C@H]4/C=C\CCCCC[C@H](NC(=O)c4cc(C)on4)C(=O)N3C1)nc1cc(OC(F)(F)F)ccc12` ? 9.00 to 9.30

Reported pEC50, compound `Cc1cc(C(=O)N[C@H]2CCCCC/C=C\[C@@H]3C[C@@]3(C(=O)NS(=O)(=O)C3(C)CC3)NC(=O)[C@@H]3C[C@@H](Oc4nc5cc(OC(F)(F)F)ccc5c5ccccc45)CN3C2=O)no1` : ____ 9.00 to 9.30

Need pEC50 of `Cc1cc(C(=O)N[C@H]2CCCCC/C=C\[C@@H]3C[C@@]3(C(=O)NS(=O)(=O)C3CC3)NC(=O)[C@@H]3C[C@@H](Oc4nc5cc(F)c(F)cc5c5ccc(OC(F)(F)F)cc45)CN3C2=O)no1` , thanks. 9.00 to 9.30

Record request: pEC50 value, item `Cc1cc(C(=O)N[C@H]2CCCCC/C=C\[C@@H]3C[C@@]3(C(=O)NS(=O)(=O)C3(C)CC3)NC(=O)[C@@H]3C[C@@H](Oc4nc5cc(F)ccc5c5cc(F)ccc45)CN3C2=O)no1` 9.30 to 10.00

Any idea what its pEC50 is? The compound is `CC1(S(=O)(=O)NC(=O)[C@@]23C[C@H]2/C=C\CCCCC[C@H](NC(=O)c2cscn2)C(=O)N2C[C@H](Oc4nc5cc(F)ccc5c5cc(F)ccc45)C[C@H]2C(=O)N3)CC1` 9.00 to 9.30
